Quick reference: Zones of Inhibition of the listed items.
- System: Staph aureus 525
- ASSAY_COMMENT: Kirby-Bauer agar disk diffusion
- Format: cell-based, Staphylococcus aureus
- STATED_CONDITIONS: Table 4; 20 μg disk loading

COMPOUND | Zones of Inhibition / mm
CCC(C)SN1C(=O)C(OC)C1c1ccccc1Cl (mixture of isomers) | 32
COC1C(=O)N(SC2CCCCC2)C1c1ccccc1Cl (racemic) | 21
CCSN1C(=O)C(OC)C1c1ccccc1Cl (racemic) | 26
CCCCSN1C(=O)C(OC)C1c1ccccc1Cl (racemic) | 25
COC1C(=O)N(SC)C1c1ccccc1Cl (racemic) | 26

====

- System: Staph aureus 525
- ASSAY_COMMENT: Kirby-Bauer agar disk diffusion
- Type: cell-based, Staphylococcus aureus
- STATED_CONDITIONS: Table 5
// classify: if (Kirby-Bauer Disc Diffusion Test Results < 20) 1 else 0

COMPOUND | EXPERIMENTAL_TARGET | ASSIGNED_CLASS
COC1C(=O)N(SC)C1C#Cc1ccccc1 (racemic) [FIG. 11A] | Staph aureus 525 | 0
COC1C(=O)N(SC)C1c1cccc([N+](=O)[O-])c1 (racemic) [FIG. 11C] | Staph aureus 525 | 1
COC1C(=O)N(SC)C1c1ccc(Cl)cc1 (racemic) [FIG. 11H] | Staph aureus 525 | 0
COC1C(=O)N(SC)C1c1ccc(C#N)cc1 (racemic) [FIG. 11D] | Staph aureus 525 | 1
COC1C(=O)N(SC)C1c1ccccc1 (racemic) [FIG. 11B] | Staph aureus 525 | 0

====

Quick reference: zone of growth inhibition, average diameter of the listed items.
- Test system: MRSA USF659
- ASSAY_COMMENT: Kirby-Bauer agar disk diffusion
- Assay type: cell-based, Staphylococcus aureus
- STATED_CONDITIONS: Table 1; 6-mm disks, 20 μg test compound, 24 h, triplicate
RECORDED_ENDPOINT: zone of growth inhibition, average diameter (mm)

COMPOUND | VALUE
COC1C(=O)N(SC)C1c1cccc([N+](=O)[O-])c1 (racemic) [Lactam E] | 11
COC1C(=O)N(SC)C1c1ccc(C#N)cc1 (racemic) [Lactam G] | 12
COC1C(=O)N(SC)C1C=Cc1ccccc1 (racemic) [Lactam B] | 15
COC1C(=O)N(SC)C1c1ccccc1Cl (racemic) [Lactam D] | 24
COC1C(=O)N(SC)C1C#Cc1ccccc1 (racemic) [Lactam A] | 25
COC1C(=O)N(SC)C1c1ccccc1 (racemic) [Lactam C] | 24
COC1C(=O)N(SC)C1c1ccccc1C (racemic) [Lactam H] | 20
COC1C(=O)N(SC)C1c1cccs1 (racemic) [Lactam I] | 24
COC(=O)c1ccc(C2C(OC)C(=O)N2SC)cc1 (racemic) [Lactam F] | 13

====

- System: MRSA USF657
- ASSAY_COMMENT: Kirby-Bauer agar disk diffusion
- Format: cell-based, Staphylococcus aureus
- Design: unit not given here
- STATED_CONDITIONS: Table 5; beta-lactamase producing strain
RECORDED_ENDPOINT: Kirby-Bauer Disc Diffusion Test Results

MOLECULE | VALUE
COC1C(=O)N(SC)C1c1c(Cl)cccc1Cl (racemic) [FIG. 11I] | 20
COC1C(=O)N(SC)C1c1ccccc1 (racemic) [FIG. 11B] | 28
COC1C(=O)N(SC)C1c1ccc(C#N)cc1 (racemic) [FIG. 11D] | 10
COC1C(=O)N(SC)C1c1ccc(Cl)cc1 (racemic) [FIG. 11H] | 22
COC1C(=O)N(SC)C1C#Cc1ccccc1 (racemic) [FIG. 11A] | 28
CN[C@H](CC(C)C)C(=O)N[C@H]1C(=O)N[C@@H](CC(N)=O)C(=O)N[C@H]2C(=O)N[C@H]3C(=O)N[C@H](C(=O)N[C@H](C(=O)O)c4cc(O)cc(O)c4-c4cc3ccc4O)[C@H](O)c3ccc(c(Cl)c3)Oc3cc2cc(c3O[C@@H]2O[C@H](CO)[C@@H](O)[C@H](O)[C@H]2O[C@H]2C[C@](C)(N)[C@H](O)[C@H](C)O2)Oc2ccc(cc2Cl)[C@H]1O [Vancomycin, reference compound] | 18
CC1(C)S[C@@H]2[C@H](NC(=O)Cc3ccccc3)C(=O)N2[C@H]1C(=O)O [PenG, penicillin G, reference compound] | 12
COC1C(=O)N(SC)C1c1cccc([N+](=O)[O-])c1 (racemic) [FIG. 11C] | 18
COC1C(=O)N(SC)C1c1ccccc1Cl (racemic) [FIG. 11F] | 28
COC1C(=O)N(SC)C1c1cccc(Cl)c1 (racemic) [FIG. 11G] | 25
COC1C(=O)N(SC)C1c1cccs1 (racemic) [FIG. 11E] | 26

====

- Test system: MRSA USF653
- ASSAY_COMMENT: Kirby-Bauer agar disk diffusion
- Assay type: cell-based, Staphylococcus aureus
- STATED_CONDITIONS: Table 4; 20 μg disk loading

MOLECULE | EXPERIMENTAL_TARGET | Zones of Inhibition, mm
CCC(C)SN1C(=O)C(OC)C1c1ccccc1Cl (mixture of isomers) | MRSA USF653 | 34
COC1C(=O)N(SC2CCCCC2)C1c1ccccc1Cl (racemic) | MRSA USF653 | 20
CCSN1C(=O)C(OC)C1c1ccccc1Cl (racemic) | MRSA USF653 | 33
COC1C(=O)N(SC)C1c1ccccc1Cl (racemic) | MRSA USF653 | 29
CCCCSN1C(=O)C(OC)C1c1ccccc1Cl (racemic) | MRSA USF653 | 27

====

Quick reference: Kirby-Bauer Disc Diffusion Test Results of the listed items.
- Tested on: MRSA USF654
- ASSAY_COMMENT: Kirby-Bauer agar disk diffusion
- Assay type: cell-based, Staphylococcus aureus
- Design: unit not given here
- STATED_CONDITIONS: Table 5; beta-lactamase producing strain

COMPOUND | Kirby-Bauer Disc Diffusion Test Results
COC1C(=O)N(SC)C1c1ccc(Cl)cc1 (racemic) [FIG. 11H] | 23
COC1C(=O)N(SC)C1c1c(Cl)cccc1Cl (racemic) [FIG. 11I] | 21
COC1C(=O)N(SC)C1c1cccc([N+](=O)[O-])c1 (racemic) [FIG. 11C] | 16
COC1C(=O)N(SC)C1c1cccs1 (racemic) [FIG. 11E] | 27
COC1C(=O)N(SC)C1c1cccc(Cl)c1 (racemic) [FIG. 11G] | 21

====

- Tested on: Staph aureus 525
- ASSAY_COMMENT: Kirby-Bauer agar disk diffusion
- Format: cell-based, Staphylococcus aureus
- STATED_CONDITIONS: Table 5
Quick reference: Kirby-Bauer Disc Diffusion Test Results of the listed items.

COMPOUND | EXPERIMENTAL_TARGET | Kirby-Bauer Disc Diffusion Test Results
COC1C(=O)N(SC)C1c1cccc(Cl)c1 (racemic) [FIG. 11G] | Staph aureus 525 | 24
COC1C(=O)N(SC)C1c1c(Cl)cccc1Cl (racemic) [FIG. 11I] | Staph aureus 525 | 24
COC1C(=O)N(SC)C1c1cccs1 (racemic) [FIG. 11E] | Staph aureus 525 | 27
COC1C(=O)N(SC)C1c1ccccc1Cl (racemic) [FIG. 11F] | Staph aureus 525 | 26
CC1(C)S[C@@H]2[C@H](NC(=O)Cc3ccccc3)C(=O)N2[C@H]1C(=O)O [PenG, penicillin G, reference compound] | Staph aureus 525 | 33

====

- System: Staphylococcus aureus (ATCC 25923)
- ASSAY_COMMENT: Kirby-Bauer agar disk diffusion
- Format: cell-based
- STATED_CONDITIONS: Table 3; 6-mm disks, 20 μg test compound, 24 hours
RECORDED_ENDPOINT: zone of growth inhibition, average diameter (mm)

COMPOUND | UNITS_TEXT | VALUE
COC1C(=O)N(SC)C1C#Cc1ccccc1 (racemic) | mm | 27
CSN1C(=O)C(OC(C)=O)C1CCc1ccccc1 (racemic) | mm | 17
COC1C(=O)N2SC(c3ccccc3)=C(I)C12 (stereo not drawn) | mm | 0
CSN1C(=O)C(Oc2ccccc2)C1C=Cc1ccccc1 (racemic) | mm | 15
CSN1C(=O)C(OC(C)=O)C1C=Cc1ccccc1 (racemic) | mm | 15
CC1(C)S[C@@H]2[C@H](NC(=O)Cc3ccccc3)C(=O)N2[C@H]1C(=O)O [PenG, penicillin G, reference compound] | mm | 34
COC1C(=O)N(SC)C1CCc1ccccc1 (racemic) | mm | 16
CSN1C(=O)C(Oc2ccccc2)C1CCc1ccccc1 (racemic) | mm | 14
COC1C(=O)N(SC)C1C(C#Cc1ccccc1)OC(C)=O (mixture of isomers) | mm | 0

====

- Test system: MRSA USF658
- ASSAY_COMMENT: Kirby-Bauer agar disk diffusion
- Assay type: cell-based, Staphylococcus aureus
- Design: unit not given here
- STATED_CONDITIONS: Table 5; beta-lactamase producing strain
Quick reference: Kirby-Bauer Disc Diffusion Test Results of the listed items.

COMPOUND | Kirby-Bauer Disc Diffusion Test Results
CC1(C)S[C@@H]2[C@H](NC(=O)Cc3ccccc3)C(=O)N2[C@H]1C(=O)O [PenG, penicillin G, reference compound] | 18
COC1C(=O)N(SC)C1c1cccc([N+](=O)[O-])c1 (racemic) [FIG. 11C] | 17
COC1C(=O)N(SC)C1c1ccccc1 (racemic) [FIG. 11B] | 27
COC1C(=O)N(SC)C1C#Cc1ccccc1 (racemic) [FIG. 11A] | 27
COC1C(=O)N(SC)C1c1cccc(Cl)c1 (racemic) [FIG. 11G] | 22
COC1C(=O)N(SC)C1c1ccccc1Cl (racemic) [FIG. 11F] | 28
COC1C(=O)N(SC)C1c1c(Cl)cccc1Cl (racemic) [FIG. 11I] | 20
COC1C(=O)N(SC)C1c1ccc(C#N)cc1 (racemic) [FIG. 11D] | 12
COC1C(=O)N(SC)C1c1ccc(Cl)cc1 (racemic) [FIG. 11H] | 20
CN[C@H](CC(C)C)C(=O)N[C@H]1C(=O)N[C@@H](CC(N)=O)C(=O)N[C@H]2C(=O)N[C@H]3C(=O)N[C@H](C(=O)N[C@H](C(=O)O)c4cc(O)cc(O)c4-c4cc3ccc4O)[C@H](O)c3ccc(c(Cl)c3)Oc3cc2cc(c3O[C@@H]2O[C@H](CO)[C@@H](O)[C@H](O)[C@H]2O[C@H]2C[C@](C)(N)[C@H](O)[C@H](C)O2)Oc2ccc(cc2Cl)[C@H]1O [Vancomycin, reference compound] | 18
COC1C(=O)N(SC)C1c1cccs1 (racemic) [FIG. 11E] | 26
